# Substrate: PET
# ASSAY DETAILS: Proxy for plastic degradation [Released monomer concentration (HPLC/LC-MS) (TPA)]
# ASSAY SETUP: pH 9
OBSERVED PROPERTY: Proxy for plastic degradation (nM)
State the answer as a number, implicitly in nM.

Query: Look at this protein and give its reported Proxy for plastic degradation. unnamed (protein) MNFPRASRLMQAAVLGGLMAVSAAATAQTNPYARGPNPTAASLEASAGPFTVRSFTVSRPSGYGAGTVYYPTNAGGTVGAIAIVPGYTARQSSIKWWGPRLASHGFVVITIDTNSTLDQPSSRSSQQMAALRQVASLNGTSSSPIYGKVDTARMGVMGWSMGGGGSLISAANNPSLKAAAPQAPWDSSTNFSSVTVPTLIFACENDSIAPVASSALPIYDSMSRNAKQFLEINGGSHSCANSGNSNQALIGKKGVAWMKRFMDNDTRYSTFACENPNSTRVSDFRTANCS
Response: 0
